Assay: Human plasma stability study (37.5° C.)
Type: in vitro ADME
Conditions: human, plasma, human plasma, 100 μg/ml, 37.5° C.; read-out: t1/2 (plasma stability) (converted)
measured_parameter: half-life (h)
Field format: number, assumed h, no unit text.

**Q:** Endpoint output: half-life of CO[C@H]1C[C@@H]2CC[C@@H](C)[C@@](O)(O2)C(=O)C(=O)N2CCCC[C@H]2C(=O)O[C@H]([C@H](C)C[C@@H]2CC[C@@H](O)[C@H](OC)C2)CC(=O)[C@H](C)/C=C(\C)[C@@H](OC(=O)CN(C)C)[C@@H](OC)C(=O)[C@H](C)C[C@H](C)/C=C/C=C/C=C/1C . Value?
**A:** 4.8
